Provenance of the data: paper PMC7462494

assayOverview: Hemolytic activity (cytotoxicity through hemolysis)
Type: cell-based
experimentalConditions: bovine, red blood cell (erythrocyte) suspension, pH 7.4, 20 µL compound solution (10 mg/mL) in 180 µL RBCs suspension, room temperature, PBS negative control, Triton positive control
The threshold is inclusive: hemolysis at 30 min, 1 mg/mL of exactly 7% counts as condition met; values below receive condition not met.

CC(C)(C)CC(C)(C)c1ccc(OCCO)cc1 [Triton-X, reference compound]
condition met
Cc1ccc(C)c(NC(=O)CCSc2nnc(Cc3csc(N)n3)o2)c1 [Compound 7f]
condition not met
Cc1ccc(NC(=O)CCSc2nnc(Cc3csc(N)n3)o2)c(C)c1 [Compound 7e]
condition not met
Cc1cccc(NC(=O)CCSc2nnc(Cc3csc(N)n3)o2)c1 [Compound 7c]
condition not met
CCOc1ccc(NC(=O)CCSc2nnc(Cc3csc(N)n3)o2)cc1 [Compound 7l]
condition met

Input: Form field: hemolysis at 30 min, 1 mg/mL at least 7%? Entry: CCc1ccccc1NC(=O)CCSc1nnc(Cc2csc(N)n2)o1 [Compound 7j]
Output: condition not met

Input: Form field: hemolysis at 30 min, 1 mg/mL at least 7%? Entry: Cc1ccc(NC(=O)CCSc2nnc(Cc3csc(N)n3)o2)cc1C [Compound 7h]
Output: condition not met

---

assayOverview: Hemolytic activity (cytotoxicity through hemolysis)
Type: cell-based
experimentalConditions: bovine, red blood cell (erythrocyte) suspension, pH 7.4, 20 µL compound solution (10 mg/mL) in 180 µL RBCs suspension, room temperature, PBS negative control, Triton positive control
Source text: The erythrocytes separated diluted in phosphate buffer saline of pH 7.4 and a suspension was made.
measurementLabel: hemolysis at 30 min, 1 mg/mL (%)
One number for each entry, in %.

Here is how some compounds turned out for hemolysis at 30 min, 1 mg/mL.
Nc1nc(Cc2nnc(SCCC(=O)Nc3ccccc3)o2)cs1 [Compound 7a]
11.5
CCc1ccc(NC(=O)CCSc2nnc(Cc3csc(N)n3)o2)cc1 [Compound 7k]
7.16
Cc1cc(C)cc(NC(=O)CCSc2nnc(Cc3csc(N)n3)o2)c1 [Compound 7i]
5.26
Cc1cccc(C)c1NC(=O)CCSc1nnc(Cc2csc(N)n2)o1 [Compound 7g]
7.37

As a next step, examine the compound that follows.
Input: Dear colleague, I am looking for the recorded hemolysis at 30 min, 1 mg/mL of the following compound: Cc1ccc(NC(=O)CCSc2nnc(Cc3csc(N)n3)o2)cc1 [Compound 7d]
Output: 7.16
